# assayed target: CaV2.2 (Homo sapiens)
# assay overview: VIPR optical membrane potential assay with electrical stimulation, CaV2.2
# measurement parameters: Table 9, CaV 2.2 receptors
pIC50: −log10 of the molar value.
The following molecules are shown together with reported pIC50 values.

Examples from the recorded data:
>  <molecule>
COc1cccc(OC)c1CNc1ncc(C(=O)N(C)C2CCCCC2)c(-c2ccc(C#N)cc2)n1

>  <pIC50>
< 5.00

$$$$
>  <molecule>
CCN(Cc1ccccc1)C(=O)c1cnc(N2CCN(C(C)=O)CC2)nc1-c1ccccc1F

>  <pIC50>
< 5.00

$$$$
>  <molecule>
COCCCNC(=O)c1cnc(N2CCOCC2)nc1-c1ccccc1F

>  <pIC50>
< 5.00

$$$$
>  <molecule>
CC(C)N(Cc1ccc(C(C)(C)C)cc1)C(=O)c1cnc(N2CCSCC2)nc1-c1ccccc1F

>  <pIC50>
> 5.70

$$$$
>  <molecule>
COc1cccc(N(C(=O)c2cnc(N3CCOCC3)nc2-c2ccccc2F)C2CCCC2)c1

>  <pIC50>
< 5.00

$$$$
>  <molecule>
COCCCNC(=O)c1cnc(N2CCOCC2)nc1-c1cccc(C)c1

>  <pIC50>
< 5.00

$$$$
>  <molecule>
CCN(Cc1ccccc1)C(=O)c1cnc(NCc2ccc3c(c2)OCO3)nc1-c1ccc(C#N)cc1

>  <pIC50>
< 5.00

$$$$
>  <molecule>
CC(C)N(C(=O)c1cnc(N2CCC3CCCCC3C2)nc1-c1ccccc1F)c1cccc(C#N)c1 (stereo not drawn)

>  <pIC50>
5.00 to 5.70

$$$$

Please turn your attention to the following entry.
Challenge: // pIC50 lookup, key: CC(C)N(Cc1ccccc1)C(=O)c1cnc(N2CCCC2)nc1-c1ccc(C#N)cc1
Response given: < 5.00

----------
# assayed target: CaV2.2 (Homo sapiens, UniProt Q00975)
# Sequence (Q00975 whole entry): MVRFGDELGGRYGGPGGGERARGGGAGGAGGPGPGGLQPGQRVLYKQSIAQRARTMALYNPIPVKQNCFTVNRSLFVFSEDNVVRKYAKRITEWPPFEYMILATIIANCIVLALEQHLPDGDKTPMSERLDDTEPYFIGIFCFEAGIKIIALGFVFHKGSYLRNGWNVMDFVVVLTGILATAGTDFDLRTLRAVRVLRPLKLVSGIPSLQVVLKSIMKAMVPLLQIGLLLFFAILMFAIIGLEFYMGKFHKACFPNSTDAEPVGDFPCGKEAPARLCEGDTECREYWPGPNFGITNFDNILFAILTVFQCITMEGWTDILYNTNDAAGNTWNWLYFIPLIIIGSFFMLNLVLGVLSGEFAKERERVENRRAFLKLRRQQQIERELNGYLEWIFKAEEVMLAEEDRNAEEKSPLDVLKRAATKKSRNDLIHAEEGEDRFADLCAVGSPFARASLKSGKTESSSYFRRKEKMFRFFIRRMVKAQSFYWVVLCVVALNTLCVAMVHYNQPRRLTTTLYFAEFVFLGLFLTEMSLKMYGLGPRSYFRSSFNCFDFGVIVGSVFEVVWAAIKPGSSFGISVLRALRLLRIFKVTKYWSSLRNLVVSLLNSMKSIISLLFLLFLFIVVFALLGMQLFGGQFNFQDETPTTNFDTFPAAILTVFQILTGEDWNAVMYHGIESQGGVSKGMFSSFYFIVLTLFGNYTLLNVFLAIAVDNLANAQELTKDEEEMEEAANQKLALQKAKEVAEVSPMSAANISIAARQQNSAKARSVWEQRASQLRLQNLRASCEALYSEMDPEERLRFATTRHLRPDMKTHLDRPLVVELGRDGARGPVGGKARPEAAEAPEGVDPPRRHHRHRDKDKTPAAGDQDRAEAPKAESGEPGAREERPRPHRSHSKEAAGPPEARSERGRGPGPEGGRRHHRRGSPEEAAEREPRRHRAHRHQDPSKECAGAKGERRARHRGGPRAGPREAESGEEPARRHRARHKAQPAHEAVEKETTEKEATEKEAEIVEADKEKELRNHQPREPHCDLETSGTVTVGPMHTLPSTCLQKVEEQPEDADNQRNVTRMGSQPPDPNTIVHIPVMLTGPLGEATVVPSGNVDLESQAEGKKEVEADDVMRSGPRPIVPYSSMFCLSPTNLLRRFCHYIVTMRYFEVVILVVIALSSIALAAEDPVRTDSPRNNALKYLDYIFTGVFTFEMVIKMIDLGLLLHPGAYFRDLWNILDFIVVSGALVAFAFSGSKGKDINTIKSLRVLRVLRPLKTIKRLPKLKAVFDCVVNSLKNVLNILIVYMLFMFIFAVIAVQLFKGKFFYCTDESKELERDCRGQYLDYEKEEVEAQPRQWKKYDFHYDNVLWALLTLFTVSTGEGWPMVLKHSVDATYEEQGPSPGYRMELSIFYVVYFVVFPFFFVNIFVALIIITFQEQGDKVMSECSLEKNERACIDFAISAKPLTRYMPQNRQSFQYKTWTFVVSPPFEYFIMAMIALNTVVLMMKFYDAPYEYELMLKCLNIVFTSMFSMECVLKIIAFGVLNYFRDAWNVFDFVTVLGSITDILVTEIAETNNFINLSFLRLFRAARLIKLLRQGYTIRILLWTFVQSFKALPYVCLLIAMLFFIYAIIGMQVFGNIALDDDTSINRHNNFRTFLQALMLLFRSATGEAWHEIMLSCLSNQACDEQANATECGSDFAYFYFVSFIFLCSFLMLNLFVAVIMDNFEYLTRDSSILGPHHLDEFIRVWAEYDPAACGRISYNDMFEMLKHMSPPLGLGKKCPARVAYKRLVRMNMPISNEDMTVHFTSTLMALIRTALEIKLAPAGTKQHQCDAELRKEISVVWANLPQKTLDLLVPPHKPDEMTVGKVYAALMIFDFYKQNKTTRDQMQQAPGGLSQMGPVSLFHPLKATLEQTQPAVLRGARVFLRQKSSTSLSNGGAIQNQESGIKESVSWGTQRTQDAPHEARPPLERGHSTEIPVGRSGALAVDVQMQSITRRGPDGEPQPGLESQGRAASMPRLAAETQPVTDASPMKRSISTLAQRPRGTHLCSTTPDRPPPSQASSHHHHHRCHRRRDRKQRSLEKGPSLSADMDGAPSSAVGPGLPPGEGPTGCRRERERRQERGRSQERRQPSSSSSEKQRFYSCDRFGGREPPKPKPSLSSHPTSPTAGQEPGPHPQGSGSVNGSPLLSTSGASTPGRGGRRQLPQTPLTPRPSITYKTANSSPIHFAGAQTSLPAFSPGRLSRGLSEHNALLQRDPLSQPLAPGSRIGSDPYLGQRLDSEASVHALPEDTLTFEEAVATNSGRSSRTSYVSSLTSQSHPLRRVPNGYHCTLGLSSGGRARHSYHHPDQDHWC
# Sequence (P54284 whole entry partner): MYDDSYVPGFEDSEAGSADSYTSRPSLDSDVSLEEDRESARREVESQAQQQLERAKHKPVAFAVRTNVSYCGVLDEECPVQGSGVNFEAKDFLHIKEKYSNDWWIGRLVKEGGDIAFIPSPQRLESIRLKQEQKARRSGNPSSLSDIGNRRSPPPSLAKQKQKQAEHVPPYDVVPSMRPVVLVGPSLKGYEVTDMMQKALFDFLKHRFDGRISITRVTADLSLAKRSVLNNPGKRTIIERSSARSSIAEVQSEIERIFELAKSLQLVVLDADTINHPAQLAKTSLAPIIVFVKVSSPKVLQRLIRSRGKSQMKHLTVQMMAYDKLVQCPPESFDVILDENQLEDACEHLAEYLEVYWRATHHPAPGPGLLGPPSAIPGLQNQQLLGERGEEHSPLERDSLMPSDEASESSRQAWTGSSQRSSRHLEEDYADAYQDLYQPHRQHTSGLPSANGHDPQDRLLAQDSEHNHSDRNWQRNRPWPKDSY
# Sequence (P54289 25-956 partner limits assumed): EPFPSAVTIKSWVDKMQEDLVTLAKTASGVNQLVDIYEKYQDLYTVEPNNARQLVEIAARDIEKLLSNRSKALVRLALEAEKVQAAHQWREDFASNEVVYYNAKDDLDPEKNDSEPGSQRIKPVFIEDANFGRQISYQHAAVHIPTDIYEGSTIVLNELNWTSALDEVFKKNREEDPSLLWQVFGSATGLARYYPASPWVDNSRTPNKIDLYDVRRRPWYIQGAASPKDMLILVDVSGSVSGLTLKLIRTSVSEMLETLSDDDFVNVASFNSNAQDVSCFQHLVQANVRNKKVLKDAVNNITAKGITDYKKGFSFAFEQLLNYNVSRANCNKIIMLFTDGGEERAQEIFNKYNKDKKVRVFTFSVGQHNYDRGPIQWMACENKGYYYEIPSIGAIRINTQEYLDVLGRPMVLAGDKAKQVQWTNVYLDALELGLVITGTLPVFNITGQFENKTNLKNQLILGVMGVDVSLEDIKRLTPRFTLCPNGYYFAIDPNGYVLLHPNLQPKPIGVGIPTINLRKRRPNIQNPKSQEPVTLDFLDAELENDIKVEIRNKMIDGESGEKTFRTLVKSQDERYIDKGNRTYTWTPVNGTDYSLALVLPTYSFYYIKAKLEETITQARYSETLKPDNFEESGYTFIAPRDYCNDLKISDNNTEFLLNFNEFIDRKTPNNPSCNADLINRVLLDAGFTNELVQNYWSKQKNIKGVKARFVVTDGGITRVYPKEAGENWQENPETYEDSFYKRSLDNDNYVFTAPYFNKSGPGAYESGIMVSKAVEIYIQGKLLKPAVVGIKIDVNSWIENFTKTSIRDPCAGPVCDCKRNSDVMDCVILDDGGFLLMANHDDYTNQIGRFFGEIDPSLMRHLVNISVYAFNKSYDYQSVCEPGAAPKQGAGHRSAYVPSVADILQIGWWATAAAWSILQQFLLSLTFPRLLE
# Sequence (P54289 957-1103 partner limits assumed): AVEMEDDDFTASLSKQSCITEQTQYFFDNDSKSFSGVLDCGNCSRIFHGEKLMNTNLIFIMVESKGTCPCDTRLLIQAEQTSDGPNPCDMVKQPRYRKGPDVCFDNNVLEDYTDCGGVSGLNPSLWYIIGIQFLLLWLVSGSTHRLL
# assay overview: VIPR optical membrane potential assay with electrical stimulation, CaV2.2
# measurement parameters: Table 9, CaV 2.2 receptors
quantity kind: IC50

Examples from the recorded data:
>  <compound>
CCCCNC(=O)c1cnc(NCCCOC)nc1-c1cccc(C)c1 [compound 332]

>  <assayed target>
CaV2.2 (Homo sapiens, UniProt Q00975)

>  <IC50>
> 10 µM

$$$$
>  <compound>
COc1cccc(N(C(=O)c2cnc(N3CCOCC3)nc2-c2ccccc2F)C2CCOCC2)c1 [compound 197]

>  <assayed target>
CaV2.2 (Homo sapiens, UniProt Q00975)

>  <IC50>
> 10 µM

$$$$
>  <compound>
COc1cccc(N(C(=O)c2cnc(N3CCCCC3)nc2-c2ccccc2F)C2CCOCC2)c1 [compound 35]

>  <assayed target>
CaV2.2 (Homo sapiens, UniProt Q00975)

>  <IC50>
> 10 µM

$$$$
>  <compound>
COc1cccc(CN(C(=O)c2cnc(N3CCC4CCCCC4C3)nc2-c2ccccc2F)C(C)C)c1 (stereo not shown) [compound 162]

>  <assayed target>
CaV2.2 (Homo sapiens, UniProt Q00975)

>  <IC50>
< 2 µM

$$$$
>  <compound>
Cc1nc(N2CCCCC2)nc(-c2ccccc2F)c1C(=O)N(Cc1ccc(C(C)(C)C)cc1)C(C)C [compound 32]

>  <assayed target>
CaV2.2 (Homo sapiens, UniProt Q00975)

>  <IC50>
2 to 10 µM

$$$$
>  <compound>
CC(=O)NCCNc1ncc(C(=O)N(Cc2ccccc2)C(C)C)c(-c2ccc(C#N)cc2)n1 [compound 319]

>  <assayed target>
CaV2.2 (Homo sapiens, UniProt Q00975)

>  <IC50>
> 10 µM

$$$$
>  <compound>
CC(=O)NCCNC(=O)c1cnc(N2CCCC2)nc1-c1ccc(-c2ccccc2)cc1 [compound 281]

>  <assayed target>
CaV2.2 (Homo sapiens, UniProt Q00975)

>  <IC50>
> 10 µM

$$$$
>  <compound>
CC(C)N(C(=O)c1cnc(N2CCN(C)CC2)nc1-c1ccccc1F)c1ccccc1 [compound 23]

>  <assayed target>
CaV2.2 (Homo sapiens, UniProt Q00975)

>  <IC50>
> 10 µM

$$$$
>  <compound>
CCN(Cc1ccccc1)C(=O)c1cnc(NCc2ccc(C)o2)nc1-c1ccc(C#N)cc1 [compound 244]

>  <assayed target>
CaV2.2 (Homo sapiens, UniProt Q00975)

>  <IC50>
> 10 µM

$$$$
>  <compound>
O=C(NC1CCC1)c1cnc(N2CCOCC2)nc1-c1ccccc1F [compound 174]

>  <assayed target>
CaV2.2 (Homo sapiens, UniProt Q00975)

>  <IC50>
> 10 µM

$$$$

Challenge: // IC50 lookup, key: CCN(C)c1ncc(C(=O)NCCCOC)c(-c2cccc(C)c2)n1 [compound 223]
Response given: > 10 µM

Challenge: # iterate: CC(C)N(Cc1ccc2c(c1)OCO2)C(=O)c1cnc(N2CCCCC2)nc1-c1ccccc1F [compound 94]
Response given: < 2 µM

Challenge: # iterate: Cc1cccc(-c2nc(NCc3ccccc3)ncc2C(=O)N2CCOCC2)c1 [compound 304]
Response given: > 10 µM
